test.protocol: Systemic (subcutaneous) administration of SB743921 after spinal cord transection
Assay type: in vivo, rats
setup.conditions: rat, in vivo, 1.125 mg/kg; regimen e: 1,125 mg/kg SC, 4 doses, every 12 hours, starting 12 hours post-injury; at 7 DPI
reported.endpoint: mortality at 168 h

Query block: For the compound Cc1ccc(C(=O)N(CCCN)[C@@H](c2oc3cc(Cl)ccc3c(=O)c2Cc2ccccc2)C(C)C)cc1 , what mortality at 168 h is on record?
Result block: > 90%
